Give cell viability for every item shown.
system: NOMO1; assay: cell viability relative to DMSO control; higher = less cytotoxic; conditions: HPLM + 10% dialyzed FBS; 48 h; 5.12 µM
Answer in %, number only, no unit symbol.

Given N#CC[C@H](C1CCCC1)n1cc(-c2ncnc3[nH]ccc23)cn1 , state its recorded cell viability.
61.4

Look up cell viability for this compound: C1CN\2C[C@@H](\N=C2S1)C3=CC=CC=C3
91.3

Query (compound): Oc1ccc(-c2ccc(-c3cc(Nc4cccc(CNC5CC5)c4)[nH]n3)cc2)c(O)c1 ; field requested: cell viability
41.4

Reported cell viability for OC[C@H]1OC(OC2=CC3=C(C(=C2)O)C(=O)\C(=C/O3)C4=CC=C(O)C=C4)[C@H](O)[C@@H](O)[C@@H]1O (some centres not stated) : what is it?
88.9

I'd like to know its cell viability. The compound in question is CCC(C1CCC(C)C(O1)C(C)C(O)C(C)C(=O)C(CC)C2OC\3(O[C@]4(CC[C@@](C)(O4)C5CC[C@@](O)(CC)C(C)O5)C(O)\C=C3)C(C)CC2C)C([O-])=O (some centres not stated)
38

Quick check: cell viability of NC[C@H]1O[C@H](O[C@H]2[C@H](O)[C@@H](O[C@H]3O[C@H](CO)[C@@H](O)[C@H](N)[C@H]3O)[C@H](N)C[C@@H]2N)[C@H](N)C[C@@H]1O ?
102

Returns the measured cell viability for the input compound. Input: Cc1cnc(Nc2ccc(CN3CCOCC3)cc2)nc1Nc1cccc([S+](=O)([O-])NC(C)(C)C)c1
48.1

* * *

system: NOMO1; assay: cell viability relative to DMSO control; higher = less cytotoxic; conditions: RPMI 5 mM glucose + 10% dialyzed FBS; 48 h; 1.71 µM
Exercise: for every item that follows, state its recorded cell viability.
Report only the number, with the unit % understood.

Any idea what cell viability was measured for C[C@H](Cc1ccc(O)c(O)c1)[C@@H](C)Cc1ccc(O)c(O)c1 ?
111

Reported cell viability, molecule CN1CCN(CCCN2c3ccccc3Sc3ccc(Cl)cc32)CC1.O=C(O)/C=C\C(=O)O.O=C(O)/C=C\C(=O)O : ____
68.9

Record request: cell viability value, item Cc1ccc(/C=N/NC(=O)c2ccccc2Oc2ccccc2)o1
96.3

Item under review: Oc1ccc([C@@H]2Oc3ccc(O)cc3[C@@H]3CCC[C@@H]32)cc1 . Reported cell viability?
87.4

Returns the measured cell viability for the input molecule. Input: CN(C)CCOc1ccc(/C(=C(/CCCl)c2ccccc2)c2ccccc2)cc1
120

Endpoint output: cell viability of NC(CO)C(=O)NNCc1ccc(O)c(O)c1O (centres undefined) . Value?
90

Consider the molecule shown here: OC[C@H]1OC(OC2=CC3=C(C(=C2)O)C(=O)\C(=C/O3)C4=CC=C(O)C=C4)[C@H](O)[C@@H](O)[C@@H]1O (some centres undefined) What is its recorded cell viability?
82.8

// lookup cell viability for C[N]1N=CC=C1C/2=C(\C)N(C(=O)C(=C2)/C(=O)NCC3=NC=C(C=C3)[S+](C)([O-])=O)C4=CC=CC(=C4)C(F)(F)F
79.7

What measured cell viability goes with C1CN\2C[C@@H](\N=C2S1)C3=CC=CC=C3 ?
99.9

* * *

tested on: NOMO1; assay: cell viability relative to DMSO control; higher = less cytotoxic; conditions: RPMI 5 mM glucose + 10% FBS; 48 h; 46.1 µM
Provide the reported cell viability of each item.
Answer in %, number only, no unit symbol.

Which cell viability value belongs to C[C@H](Cc1ccc(O)c(O)c1)[C@@H](C)Cc1ccc(O)c(O)c1 ?
57.5

Need cell viability, item CC(C)(C)C1=CC(=C(NC(=O)C/2=C/NC3=C(C=CC=C3)C2=O)C=C1O)C(C)(C)C
103

Fill blank: measured cell viability of the compound NNc1nncc2ccccc12 is ____.
131

What value of cell viability has been recorded for this entry: CN(C)CCOc1ccc(/C(=C(/CCCl)c2ccccc2)c2ccccc2)cc1
39.6

Query (compound): CCOC(=O)[C@H]1O[C@@H]1C(=O)N[C@@H](CC(C)C)C(=O)NCCC(C)C ; field requested: cell viability
12.6

Sample Cc1cccc(-c2[nH]c(C(C)(C)C)nc2-c2ccc3c(c2)OCO3)n1 — what was its cell viability?
8.98

I'd like to know its cell viability. The compound in question is COc1cc2ncnc(Nc3cccc(Cl)c3)c2cc1OC
34.4

Any idea what its cell viability is? The compound is CC(C)n1cnc2c(NCCc3ccc(O)cc3)nc(-c3csc4ccccc34)nc21
24.9

Item N=C(N)NC(=N)N1CCOCC1 has what recorded cell viability?
87.4

Which cell viability reading was recorded for the compound Oc1c(Cl)cc(Cl)c2cccnc12 ?
62.6
